Molecular target: human MCH receptor (Homo sapiens, UniProt Q99705)
Sequence (Q99705 whole entry): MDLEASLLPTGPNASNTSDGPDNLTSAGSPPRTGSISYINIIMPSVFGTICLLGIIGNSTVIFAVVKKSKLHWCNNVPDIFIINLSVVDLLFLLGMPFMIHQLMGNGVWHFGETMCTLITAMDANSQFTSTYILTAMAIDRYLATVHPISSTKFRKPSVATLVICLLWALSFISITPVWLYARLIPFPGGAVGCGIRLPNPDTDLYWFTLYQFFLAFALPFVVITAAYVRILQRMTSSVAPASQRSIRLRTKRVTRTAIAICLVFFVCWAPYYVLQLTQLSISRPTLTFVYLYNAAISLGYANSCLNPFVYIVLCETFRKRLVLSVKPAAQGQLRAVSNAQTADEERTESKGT
Test: calcium mobilization assay (FLIPR); functional IC50 of MCH1R antagonists
Conditions: recombinant HEK293 cell line expressing human MCH receptor; calcium flux after addition of agonist MCH
# key: entry, value: IC50

| Compound | IC50 |
| --- | --- |
| O=C(N[C@H]1CCc2cc(CN3CCCCCC3)ccc2C1)c1ccc(OC[C@@H]2CCCO2)c(F)c1 | 300 nM |
| O=C(N[C@H]1CCc2cc([C@@H]3CCCN(C4CCOCC4)C3)ccc2C1)c1ccc(OC[C@@H]2CCCO2)cc1 | 230 nM |
| CC(C)(C)CNCc1ccc2c(c1)CC[C@H](NC(=O)c1ccc(OC[C@@H]3CCCO3)cc1)C2 | 100 nM |
| CN1CCN(Cc2ccc3c(c2)CC[C@H](NC(=O)c2ccc(OC[C@@H]4CCCO4)cc2)C3)CC1 | 340 nM |
| O=C(N[C@H]1CCc2cc(CNCC3OCCO3)ccc2C1)c1ccc(OC[C@@H]2CCCO2)cc1 | 300 nM |
| COC(=O)CNCc1ccc2c(c1)CC[C@H](NC(=O)c1ccc(OC[C@@H]3CCCO3)cc1)C2 | 360 nM |
| CC1(COc2ccc(C(=O)N[C@H]3CCc4cc(CN5CCCCCC5)ccc4C3)cc2)COC1 | 1280 nM |
| O=C(N[C@H]1CCc2cc(CN3CCCOCC3)ccc2C1)c1ccc(OC[C@@H]2CCCO2)cc1 | 120 nM |
| CC(=O)N1CCN(Cc2ccc3c(c2)CC[C@H](NC(=O)c2ccc(OC[C@@H]4CCCO4)cc2)C3)CC1 | 310 nM |
| O=C(N[C@H]1CCc2cc(CN3C[C@@H]4C[C@H]3CO4)ccc2C1)c1ccc(OC[C@@H]2CCCO2)cc1 | 330 nM |
| O=C(N[C@H]1CCc2cc(CN3CCCCCC3)ccc2C1)c1ccc(OCC2CCOCC2)cc1 | 440 nM |
| O=C(N[C@H]1CCc2cc(CN3CC[C@@H](F)C3)ccc2C1)c1ccc(OC[C@@H]2CCCO2)cc1 | 120 nM |
| CC(C)CN1CCCC(c2ccc3c(c2)CC[C@H](NC(=O)c2ccc(OC[C@@H]4CCCO4)cc2)C3)C1 (stereo partly drawn) | 230 nM |
| O=C(N[C@H]1CCc2cc(CN3CCCC3)ccc2C1)c1ccc(OC[C@@H]2CCCO2)cc1 | 90 nM |
| O=C(N[C@H]1CCc2cc(CN3C[C@H]4CC[C@H](CC4)C3)ccc2C1)c1ccc(OC[C@@H]2CCCO2)cc1 | 210 nM |
